- tested_target: Mineralocorticoid receptor (Rattus norvegicus) (UniProt P22199)
- Sequence (P22199 whole entry): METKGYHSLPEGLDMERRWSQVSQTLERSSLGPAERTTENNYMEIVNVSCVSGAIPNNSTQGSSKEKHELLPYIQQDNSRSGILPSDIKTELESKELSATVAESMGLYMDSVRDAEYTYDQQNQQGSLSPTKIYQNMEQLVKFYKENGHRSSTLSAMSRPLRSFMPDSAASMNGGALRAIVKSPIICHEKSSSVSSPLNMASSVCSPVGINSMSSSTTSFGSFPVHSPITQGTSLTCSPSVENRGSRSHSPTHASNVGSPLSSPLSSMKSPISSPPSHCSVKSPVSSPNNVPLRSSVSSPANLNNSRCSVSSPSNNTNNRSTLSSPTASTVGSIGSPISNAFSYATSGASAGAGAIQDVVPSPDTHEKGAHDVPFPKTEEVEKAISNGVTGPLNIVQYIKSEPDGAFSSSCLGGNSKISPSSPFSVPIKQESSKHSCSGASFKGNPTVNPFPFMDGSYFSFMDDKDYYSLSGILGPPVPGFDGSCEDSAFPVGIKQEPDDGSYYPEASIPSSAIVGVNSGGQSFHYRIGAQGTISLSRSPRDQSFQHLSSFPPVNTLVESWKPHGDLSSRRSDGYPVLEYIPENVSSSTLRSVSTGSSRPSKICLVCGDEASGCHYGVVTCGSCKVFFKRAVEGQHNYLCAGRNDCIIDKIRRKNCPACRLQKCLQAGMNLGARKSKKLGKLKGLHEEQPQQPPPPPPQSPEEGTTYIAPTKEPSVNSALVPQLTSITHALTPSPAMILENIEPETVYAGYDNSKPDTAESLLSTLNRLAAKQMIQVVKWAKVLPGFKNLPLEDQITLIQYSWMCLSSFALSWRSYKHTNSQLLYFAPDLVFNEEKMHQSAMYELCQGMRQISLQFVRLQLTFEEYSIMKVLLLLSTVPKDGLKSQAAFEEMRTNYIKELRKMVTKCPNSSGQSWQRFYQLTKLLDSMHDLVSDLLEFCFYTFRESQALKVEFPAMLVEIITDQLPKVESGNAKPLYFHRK
- assay_details: Binding affinity expressed as the percent inhibition of 2x10E-9 M [3H]aldosterone binding to the renal mineralocorticoid receptor by the presence of competing steroid (8x10E-8 M).
Label 1 when Percent inhibition of [3H]aldosterone binding >= 20; otherwise -1.

[Q] Record CC(=O)OCC12CCC3C(CCC4=CC(=O)CCC43C)C1CCC2[C@@H](C)O (stereo partly specified) ; criterion: Percent inhibition of [3H]aldosterone binding no lower than 20. Met?
[A] -1

[Q] Is Percent inhibition of [3H]aldosterone binding for `C[C@H]1OC(=O)[C@]23CC[C@H]4[C@@H](CC[C@H]5CC(=O)CC[C@@]54C)[C@@H]2CC[C@H]13` at or above 20?
[A] -1

[Q] Could you tell me if the measured Percent inhibition of [3H]aldosterone binding of CC1(O)OCC23CCC4C(CCC5=CC(=O)CCC54C)C2CCC13 (stereo unspecified) reaches 20 or more?
[A] 1

[Q] Is Percent inhibition of [3H]aldosterone binding for CC(=O)OCC1(O)OCC23CCC4C(CC=C5CC(O)CCC54C)C2CCC13 (stereo unspecified) at or above 20?
[A] -1

[Q] # check: Percent inhibition of [3H]aldosterone binding of CC12CCC(=O)C[C@@H]1CC[C@H]1[C@@H]3CCC4C(O)(CO)OCC43CC[C@@H]12 (stereo partly specified) is greater than or equal to 20
[A] -1

[Q] Is the recorded value of Percent inhibition of [3H]aldosterone binding equal to or greater than 20 for this compound? `CC(=O)OC[C@]12CC[C@H]3[C@@H](CC[C@H]4CC(=O)CC[C@@]43C)[C@@H]1CC[C@@H]2[C@@H](C)O`
[A] -1

[Q] Textbook exercise: given the entry C[C@]12CCC(=O)C[C@@H]1CC[C@@H]1[C@@H]2CC[C@]23COC(O)(CO)[C@H]2CC[C@@H]13 (stereo partly specified) , state whether its Percent inhibition of [3H]aldosterone binding is greater than or equal to 20.
[A] 1

[Q] API: above_or_equal(metric=Percent inhibition of [3H]aldosterone binding, cutoff=20) for item CC1(O)OC[C@]23CC[C@H]4[C@@H](CC[C@H]5CC(=O)CC[C@@]54C)[C@@H]2CC[C@H]13 (stereo partly specified)
[A] -1

[Q] Tell me whether Percent inhibition of [3H]aldosterone binding is at least 20 here: C[C@@H](O)C1CCC2C3CCC4=CC(=O)CCC4(C)C3CCC21CO (stereo partly specified)
[A] 1

[Q] Has CC(=O)OCC1(O)OCC23CCC4C(CCC5=CC(=O)CCC54C)C2CCC13 (stereo unspecified) a recorded Percent inhibition of [3H]aldosterone binding greater than or equal to 20?
[A] 1

[Q] Evaluate CC(=O)OCC12CCC3C(CC=C4CC(O)CCC43C)C1CCC2C(C)=O (stereo unspecified) : Percent inhibition of [3H]aldosterone binding at minimum 20?
[A] -1

[Q] Decide: is the reported value of Percent inhibition of [3H]aldosterone binding for CC12CCC(=O)C=C1CCC1C2CCC23COC(O)(CO)C2CCC13 (stereo unspecified) equal to or greater than 20?
[A] 1

[Q] Has C[C@@H](O)C1CC[C@H]2[C@@H]3CC[C@H]4CC(O)CCC4(C)[C@H]3CCC12CO (stereo partly specified) a recorded Percent inhibition of [3H]aldosterone binding greater than or equal to 20?
[A] 1

[Q] Please check the record CC1(O)OCC23CC[C@H]4[C@@H](CC[C@H]5CC(=O)CCC54C)[C@@H]2CCC13 (stereo partly specified) and state if its Percent inhibition of [3H]aldosterone binding is at or above 20.
[A] -1

[Q] Please check the record `CC(=O)OC[C@]12CC[C@H]3[C@@H](CC[C@H]4C[C@@H](O)CC[C@@]43C)[C@@H]1CC[C@@H]2C(C)=O` and state if its Percent inhibition of [3H]aldosterone binding is at or above 20.
[A] -1

[Q] Assess whether reported Percent inhibition of [3H]aldosterone binding for CC(=O)OCC12CC[C@H]3[C@@H](CC[C@H]4CC(=O)CCC43C)[C@@H]1CCC2[C@@H](C)O (stereo partly specified) sits at 20 or higher.
[A] -1

* * *

- tested_target: Mineralocorticoid receptor (Rattus norvegicus) (UniProt P22199)
- assay_details: Mineralocorticoid activity in vivo expressed as a ratio (M/DOCA) of the urinary sodium/potassium excretion transformations after deoxy-corticosterone acetate treatment.
- Assay type: functional, organism-based
- experimental_setup: Urine
Give Ratio for every item shown.
Hey, just send me the number, nothing else.

[Q] Endpoint output: Ratio of C[C@H]1OC(=O)C23CCC4C(CCC5=CC(=O)CCC54C)C2CCC13 (stereo partly drawn) . Value?
[A] 1.32

[Q] What value of Ratio has been reported for the following compound? C[C@]12CCC(=O)C[C@@H]1CC[C@@H]1[C@@H]2CC[C@]23COC(O)(CO)[C@H]2CC[C@@H]13 (stereo partly drawn)
[A] 0.78

[Q] Consider the compound shown here: CC1(O)OCC23CC[C@H]4[C@@H](CC[C@H]5CC(O)CCC54C)[C@@H]2CCC13 (stereo partly drawn) What is its recorded Ratio?
[A] 0.92

[Q] I have this compound here, CC12CCC(O)CC1=CCC1C2CCC23COC(O)(CO)C2CCC13 (stereo not drawn) , and I need its recorded Ratio.
[A] 0.71

[Q] Quick check: Ratio of CC1(O)OCC23CC[C@H]4[C@@H](CC[C@H]5CC(=O)CCC54C)[C@@H]2CCC13 (stereo partly drawn) ?
[A] 0.91

[Q] Need Ratio, item CC1(O)OCC23CCC4C(CC=C5CC(O)CCC54C)C2CCC13 (stereo not drawn)
[A] 0.5

[Q] Dear colleague, I am looking for the recorded Ratio of the following compound: CC(=O)OCC12CCC3C(CCC4=CC(=O)CCC43C)C1CCC2C(C)=O (stereo not drawn)
[A] 1.19

[Q] Which Ratio value belongs to CC1(O)OCC23CCC4C(CCC5=CC(=O)CCC54C)C2CCC13 (stereo not drawn) ?
[A] 0.76

[Q] Report Ratio for CC1(O)OC[C@]23CC[C@H]4[C@@H](CCC5C[C@@H](O)CC[C@@]54C)[C@@H]2CC[C@H]13 (stereo partly drawn) please.
[A] 0.91

[Q] Using the record for CC12CCC(O)C[C@@H]1CC[C@H]1[C@@H]3CCC4C(O)(CO)OCC43CC[C@@H]12 (stereo partly drawn) , report its Ratio.
[A] 0.96

[Q] What Ratio value was documented for this compound, `CC(=O)OC[C@]12CC[C@H]3[C@@H](CC[C@H]4C[C@@H](O)CC[C@@]43C)[C@@H]1CC[C@@H]2C(C)=O` ?
[A] 1.13

[Q] Consider the compound CC(=O)OCC12CCC3C(CC=C4CC(O)CCC43C)C1CCC2C(C)=O (stereo not drawn) and give its measured Ratio.
[A] 1.95

[Q] What Ratio value was documented for this compound, `CC(=O)OC[C@]12CC[C@H]3[C@@H](CC[C@H]4CC(=O)CC[C@@]43C)[C@@H]1CC[C@@H]2[C@@H](C)O` ?
[A] 1.16

[Q] Any idea what Ratio was measured for CC12CCC(=O)C[C@@H]1CC[C@H]1[C@@H]3CCC4C(O)(CO)OCC43CC[C@@H]12 (stereo partly drawn) ?
[A] 0.69

[Q] Given CC(=O)OCC12CC[C@H]3[C@@H](CC[C@H]4CC(=O)CCC43C)[C@@H]1CCC2C(C)=O (stereo partly drawn) , state its recorded Ratio.
[A] 1.1

[Q] What measured Ratio goes with C[C@]12CC[C@H](O)C[C@@H]1CC[C@@H]1[C@@H]2CC[C@]23COC(O)(CO)[C@H]2CC[C@@H]13 (stereo partly drawn) ?
[A] 1.06

[Q] Return reported Ratio; argument: CC1(O)OC[C@]23CC[C@H]4[C@@H](CC[C@H]5CC(=O)CC[C@@]54C)[C@@H]2CC[C@H]13 (stereo partly drawn)
[A] 1.01

[Q] Which Ratio reading was recorded for the compound `C[C@H]1OC(=O)[C@]23CC[C@H]4[C@@H](CC[C@H]5CC(=O)CC[C@@]54C)[C@@H]2CC[C@H]13` ?
[A] 0.87
